test system: R275C/beta4; test: modulators of BK channel variants, profiling panel, selectivity assay, cell-based, U2OS BacMam, thallium flux, beta subunits (AID 1259406); details: at 30 µM;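 also: initial slope of Thallos dye fluorescence rise after thallium is added; log ratio against the mean of 0.3% DMSO vehicle wells on the same plate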
Calls of active or inactive are those of the source.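 The calls were made as follows: active = thallium flux through the channel raised or lowered by more than 3 SD from vehicle-only wells, actives on both sides; inactive = the rest.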
The reply should name one outcome from active, inactive

Sample answers from the record:
compound	label_class
N#CC(CCC(=O)O)(CCC(=O)O)S(=O)(=O)c1ccccc1	inactive
Cc1cc(NS(=O)(=O)c2ccc(NC(=O)c3nccnc3C(=O)O)cc2)no1	inactive
O=C1c2ccccc2NC(c2cc(Cl)cc(Cl)c2O)N1Cc1cccnc1 (stereo unspecified)	active
O=C1CN2Cc3c(ccc(Cl)c3Cl)N=C2N1	inactive
Cc1noc(C=Cc2sccc2C2OCCO2)c1[N+](=O)[O-]	inactive

What did this assay record as the result for `O=C(Nc1ccc(Cl)cc1)c1cnccc1C(F)(F)F` ?
inactive

###

# maps each entry to its mean signal
experiment: modulation of C. elegans fzo-1 (AID 1259413);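 also: fzo-1 mutant C. elegans worms in liquid wells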; conditions: C. elegans fzo-1 modulator screen, mean read-out; stronger effect = higher value
The source made the active and inactive calls. No rule for the calls is given here.

compound	mean signal
CO[C@H]1C=CO[C@@]2(C)Oc3c(C)c(O)c4c(O)c(c5c(c4c3C2=O)NC2(CCN(CC(C)C)CC2)N=5)=NC(=O)/C(C)=C\C=C/[C@H](C)[C@H](O)[C@@H](C)[C@@H](O)[C@@H](C)[C@H](OC(C)=O)[C@@H]1C	242 (inactive)

Reported mean signal ( CC1CC2C3CCC4=CC(=O)C=CC4(C)[C@@]3(Cl)C(O)CC2(C)C1(O)C(=O)CO (stereo partly drawn) ) = 282 (inactive)

Reported mean signal ( CC12C=CC(=O)C=C1CC[C@@H]1[C@@H]2[C@@H](O)CC2(C)[C@H]1CC[C@]2(O)C(=O)COC(=O)CCC(=O)O (stereo partly drawn) ) = 283 (inactive)

###

target: L-lactate dehydrogenase (Plasmodium falciparum (isolate CDC / Honduras)); experiment: PfLDH activity inhibition – cell lysate, 3D7 strain, counter-screen for P. falciparum growth inhibition project (AID 2304);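 also: 0% = vehicle and 100% = reference inhibitor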; settings: P. falciparum 3D7 crude extract, LDH APAD/NBT absorbance; at 2 µM; stronger effect = higher value
assay_readout: inhibition (%)
// return numeric value only (unit: %, not printed)

Illustrative cases are given below, each with its answer.
compound	inhibition, %
CC(C)(C)c1ccc(Cc2cccc3nc(N)nc(N)c23)cc1	4
Brc1ccc(Nc2nc(NCc3ccccc3)c3ccccc3n2)cc1	-4
CC1(C)N=C(N)N=C(N)N1OCOc1cc(Cl)c(Cl)cc1Cl	-3

Reported inhibition ( `CC(C)(CNC(=O)C1CCN(CCOCc2ccccc2)CC1)c1nc(-c2ccc(Cl)c(O)c2)c(-c2ccncc2)[nH]1` ) = -14

Reported inhibition ( `COc1ccc2ncc(F)c(CCN3CC[C@H](NCc4cc(C#N)c5c(c4)OCCO5)[C@H](O)C3)c2c1` ) = 2

Reported inhibition ( `CC(=O)Nc1cccc(Nc2nccc(Nc3ccc(Oc4ccccc4)cc3)n2)c1` ) = -6

Reported inhibition ( CCC(C)CN1C(=O)C(c2ccccc2)(c2ccccc2)N=C1N (stereo not given) ) = 4

Reported inhibition ( `CC(=O)Nc1cccc(Nc2c3ccccc3nc3ccccc23)c1` ) = 5

Reported inhibition ( `O=C(/C=C/c1ccc(Cl)cc1)NCCCCCN1CCCN(C(=O)Nc2cccc(Cl)c2)CC1` ) = -3

Reported inhibition ( `CCOC(=O)c1c(C)n(-c2ccc(Cl)cc2)c2ccc(OC(=O)C=Cc3ccccc3)cc12` ) = -2

###

system: R275C/beta1; assay: modulators of BK channel variants, profiling panel, selectivity assay, cell-based, U2OS BacMam, thallium flux, beta subunits (AID 1259406); conditions: at 30 µM;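 also: initial slope of Thallos dye fluorescence rise after thallium is added; log ratio against the mean of 0.3% DMSO vehicle wells on the same plate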
The source made the active and inactive calls.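 Rule for the calls: active = thallium flux through the channel raised or lowered by more than 3 SD from vehicle-only wells, actives on both sides; inactive = the rest.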
The reply should name one outcome from yes (1) = active, no (0) = inactive

Sample answers from the record:
compound	label_class
CN(C)CCOc1ccc(/C(=C(/CCCl)c2ccccc2)c2ccccc2)cc1	yes (1)
CC12CC=C(C#N)C1(C)CC=C2C#N (stereo unspecified)	no (0)
Cc1onc(-c2ccccc2)c1C(=O)NC1C(=O)N2C1SC(C)(C)C2C(=O)O (stereo unspecified)	no (0)
CCC1=C[C@H]2CN(C1)Cc1c([nH]c3ccccc13)[C@@](C(=O)OC)(c1cc3c(cc1OC)N(C)[C@H]1[C@@](O)(C(=O)OC)[C@H](OC(C)=O)[C@]4(CC)C=CCN5CC[C@]31[C@@H]54)C2	no (0)
NC(=O)c1ncn(C2OC(CO)C(O)C2O)n1 (stereo unspecified)	no (0)

What did this assay record as the result for `CCc1nc2ccccc2nc1N1CCN(S(=O)(=O)c2ccc(Cl)cc2)CC1` ?
no (0)

What did this assay record as the result for `CCCc1nc(C(C)(C)O)c(C(=O)O)n1Cc1ccc(-c2ccccc2-c2nn[nH]n2)cc1` ?
no (0)

What did this assay record as the result for `Fc1cccc(Cl)c1CSc1nccn1-c1cccnc1` ?
no (0)

What did this assay record as the result for `O=C(NC(=O)C12CC3CC(CC(C3)C1)C2)Nc1ccc(Cl)cc1` ?
no (0)

What did this assay record as the result for `COc1ccc(CNCc2cc(OC)c(OC)c(OC)c2)cc1` ?
no (0)

What did this assay record as the result for `O=C(NCC1CC1)c1ccccc1NS(=O)(=O)c1cccc2nonc12` ?
no (0)

What did this assay record as the result for CN(C)[C@@H]1C(=O)C(C(=O)NCN2CCCC2)=C(O)[C@@]2(O)C(=O)C3=C(O)c4c(O)cccc4[C@@](C)(O)C3CC12 (stereo partly specified) ?
no (0)

What did this assay record as the result for `O=C(CCN1CCOCC1)Nc1cc(Cl)cc(Cl)c1` ?
no (0)

What did this assay record as the result for `CC(C)C[C@H](NC(=O)[C@@H](O)[C@H](N)Cc1ccccc1)C(=O)O` ?
no (0)

###

assay: LFS_MB_1R medulloblastoma cell growth inhibition, synergistic combos for chromothripsis tumors, cisplatin or BGB combos (AID 1671452); conditions: LFS_MB_1R medulloblastoma cells, measured here: combination with cisplatin, at 5 µM, stronger effect = higher value;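 also: cells exposed for 96 hours before readout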
# maps each entry to its inhibition
// return numeric value only (unit: %, not printed)

mol_smiles	assay_readout	units_of_measure	measured
CO[C@H]1/C=C/O[C@@]2(C)Oc3c(C)c(O)c4c(O)c(c(C=NN5CCN(C)CC5)c(O)c4c3C2=O)NC(=O)/C(C)=C\C=C\[C@H](C)[C@H](O)[C@@H](C)[C@@H](O)[C@@H](C)[C@H](OC(C)=O)[C@@H]1C	inhibition	%	6.61
O=C(Nc1ccncc1)c1cc([N+](=O)[O-])ccc1Cl	inhibition	%	54.5
O=c1ncccn1[C@@H]1O[C@H](CO)[C@@H](O)[C@H]1O	inhibition	%	-58.9
O=c1cc(-c2cccc3c2Sc2ccccc2S3)oc(N2CCOCC2)c1	inhibition	%	-31.9
Cc1c(-c2cnccn2)ssc1=S	inhibition	%	-46.1

Now examine the next entry.
Reported inhibition ( `CC(C)N=c1cc2n(-c3ccc(Cl)cc3)c3ccccc3nc-2cc1Nc1ccc(Cl)cc1` ) = -48.3

###

biological target: L-lactate dehydrogenase (Plasmodium falciparum (isolate CDC / Honduras)) (UniProt Q27743); assay: PfLDH activity inhibition – cell lysate, 3D7 strain, counter-screen for P. falciparum growth inhibition project (AID 2304);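 also: 0% = vehicle and 100% = reference inhibitor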; conditions: P. falciparum 3D7 crude extract, LDH APAD/NBT absorbance; at 2 µM; stronger effect = higher value
Sequence (Q27743 whole entry, looked up): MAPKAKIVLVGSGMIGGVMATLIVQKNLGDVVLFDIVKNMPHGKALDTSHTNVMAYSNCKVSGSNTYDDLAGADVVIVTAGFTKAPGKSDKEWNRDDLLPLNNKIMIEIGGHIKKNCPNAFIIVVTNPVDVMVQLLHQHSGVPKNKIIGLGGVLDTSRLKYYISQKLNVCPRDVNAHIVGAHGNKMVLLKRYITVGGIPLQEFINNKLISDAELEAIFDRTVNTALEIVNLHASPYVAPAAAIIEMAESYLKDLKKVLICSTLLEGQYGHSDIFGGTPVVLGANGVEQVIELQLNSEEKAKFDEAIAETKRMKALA
assay_readout: inhibition (%)
// return numeric value only (unit: %, not printed)

mol_smiles	assay_readout	measured
CC1(C)N=C(N)N=C(N)N1OCOc1ccc(Cl)cc1	inhibition	6
Cn1nc(C(F)(F)F)c(-c2ccc(Br)cc2)c1NC(=O)Cc1ccccc1F	inhibition	-1

Bench note, L-lactate dehydrogenase (Plasmodium falciparum (isolate CDC / Honduras)) (UniProt Q27743): `COc1ccc2nc(C)cc(N/N=C/C=C/c3ccccc3)c2c1` , inhibition reads 0

Bench note, L-lactate dehydrogenase (Plasmodium falciparum (isolate CDC / Honduras)) (UniProt Q27743): `COc1cc(Cc2cnc(N)nc2N)ccc1OCc1csc(-c2ccc(Cl)cc2)n1` , inhibition reads 2

Bench note, L-lactate dehydrogenase (Plasmodium falciparum (isolate CDC / Honduras)) (UniProt Q27743): `Nc1ncc(-c2ccc(S(=O)(=O)Nc3ccc(C(=O)N[C@@H](CCC(=O)O)C(=O)O)cc3)cc2)c(=O)[nH]1` , inhibition reads -3

Bench note, L-lactate dehydrogenase (Plasmodium falciparum (isolate CDC / Honduras)) (UniProt Q27743): `Nc1nc(N)c2cc(Cc3ccccc3Cl)cnc2n1` , inhibition reads 4

Bench note, L-lactate dehydrogenase (Plasmodium falciparum (isolate CDC / Honduras)) (UniProt Q27743): `Cc1[nH]c(C)c(-c2ccc(S(=O)(=O)c3ccc(Cl)cc3)cc2)c(=O)c1Br` , inhibition reads 5

Bench note, L-lactate dehydrogenase (Plasmodium falciparum (isolate CDC / Honduras)) (UniProt Q27743): `COc1ccc(-c2cnc(N)nc2N)cc1Cl` , inhibition reads 4

Bench note, L-lactate dehydrogenase (Plasmodium falciparum (isolate CDC / Honduras)) (UniProt Q27743): `CCn1c(-c2nonc2N)nc2c(-c3cccc(NC(=O)Nc4ccc(C#N)cc4)c3)ncc(OCCCN)c21` , inhibition reads 0

Bench note, L-lactate dehydrogenase (Plasmodium falciparum (isolate CDC / Honduras)) (UniProt Q27743): `Cc1ccc(N)cc1-c1nc(NC2CC(C)(C)NC(C)(C)C2)nc2c1ccc(=O)n2-c1c(F)cccc1F` , inhibition reads -5

Bench note, L-lactate dehydrogenase (Plasmodium falciparum (isolate CDC / Honduras)) (UniProt Q27743): `O=C(Cc1cccc(Cl)c1)Nc1cccc(-c2c[nH]c3nc(Nc4cccc(OCc5ccccc5)c4)ncc23)c1` , inhibition reads -1

Bench note, L-lactate dehydrogenase (Plasmodium falciparum (isolate CDC / Honduras)) (UniProt Q27743): `O=[N+]([O-])c1cc(C(c2ccc(O)c([N+](=O)[O-])c2)C(Cl)(Cl)Cl)ccc1O` , inhibition reads 3

Bench note, L-lactate dehydrogenase (Plasmodium falciparum (isolate CDC / Honduras)) (UniProt Q27743): `Cc1ccc(Nc2c3ccccc3nc3ccc(C)cc23)cc1` , inhibition reads -2

Bench note, L-lactate dehydrogenase (Plasmodium falciparum (isolate CDC / Honduras)) (UniProt Q27743): `CCOC(=O)N1CCN(CCCCCNc2cc(C)nc(/N=C(\N)Nc3ccc(Cl)cc3)n2)CC1` , inhibition reads -1
